- Test summary: MTT-dye reduction cytotoxicity assay, normal HEK-293
- Measurement setup: human, HEK-293 cells (normal human embryonic kidney)
Property name: IC50 at 72 h (µM)

# Compound, Property name, Test result
measured = [
    ("COc1ccc(C=NNC(=O)c2ccncc2)c(O)c1 [Compound 14]", "IC50 at 72 h", 41.1),
    ("COc1ccc(C=NNC(=O)c2ccc(O)cc2)c(O)c1 [Compound 13]", "IC50 at 72 h", 56.7),
    ("COc1ccc(C=NNC(=O)c2ccccc2)c(O)c1 [Compound 12]", "IC50 at 72 h", 37.6),
]

----------
- Test system: HL-60 cells
- Test summary: MTT-dye reduction cytotoxicity assay, HL-60
- Type: cell-based, human
- Measurement setup: Homo sapiens, HL-60; 72 h treatment; read-out: IC50 exp, HL-60
- Excerpt: The research included four leukemic and three cancer human cell lines: HL-60 (acute myeloid leukemia), SKW-3 (KE-37 derivative) (T-cell leukemia), BV-173 and K-562 (chronic myeloid leukemia), MDA-MB-231 (ER-negative breast carcinoma), MCF-7 (ER-positive breast adenocarcinoma), and SaOS-2 (osteogenic sarcoma). The cells were provided from the German Collection of Microorganisms and Cell Cultures (DSMZ, Braunschweig, Germany). […]
Listed compounds paired with reported IC50
Property name: IC50

# Line notation, Test result
data = [
    ("COc1ccc(C=NNC(=O)c2ccncc2)c(O)c1", "60 nM"),
    ("COc1ccc(C=NNC(=O)c2ccccc2)c(O)c1", "40 nM"),
    ("COc1ccc(C=NNC(=O)c2ccc(O)cc2)c(O)c1", "8900 nM"),
]

----------
- Tested on: MCF-7 cells
- Test summary: MTT-dye reduction cytotoxicity assay, MCF-7
- Type: cell-based, human
- Measurement setup: Homo sapiens, MCF7; training set; some activities published before [26-32], the rest measured for this study; read-out: IC50 ± standard deviation, MCF-7
pIC50: −log10 of the molar value.
pIC50 vs 5: at or above is 1, below is 0.

# Molecule, Class
data = [
    ("COc1cccc(/C=N/NC(=O)c2ccccc2)c1O [Compound 1]", 0),
    ("COc1ccc(O)c(/C=N/NC(=O)c2ccccc2)c1 [Compound 9]", 1),
    ("COc1cccc(/C=N/NC(=O)c2ccc(O)cc2)c1O [Compound 2]", 0),
    ("O=C(N/N=C/c1cc([N+](=O)[O-])ccc1O)c1ccc(O)cc1 [Compound 7]", 1),
    ("O=C(N/N=C/c1cc([N+](=O)[O-])ccc1O)c1ccncc1 [Compound 8]", 1),
]
